System: human SMAD7 mRNA
Assay: Dose-dependent inhibition of human SMAD7 mRNA expression in Hep3B cells (Example 3, Study 1 and 2)
Format: cell-based
Settings: electroporation, Study 2 (740-20000 nM)
pIC50: −log10 of the molar value. Strand notation (5' to 3'): a small letter for the sugar, then the base; units joined by * are phosphorothioate-linked, units joined directly phosphodiester-linked; [ ] holds rarer units or linkages, { } end groups; capitals alone tell only the bases. k = constrained ethyl (cEt); [5mC] = 5-methylcytosine; d = 2'-deoxy (DNA)
measured parameter: pIC50

Below, 2 substances whose answers are already recorded.
[[record]]
substance = "830025 (antisense TTTGTAAATCGAAAGC; 3-10-3 cEt gapmer, further chemistry not given here) [compound 830025]"
measured_parameter = "pIC50"
observed = "> 6.15"

[[record]]
substance = "798823 (kA*k[5mC]*kA*dG*dT*dA*dG*dA*dG*d[5mC]*d[5mC]*dT*d[5mC]*k[5mC]*k[5mC]*k[5mC]; antisense) [compound 798823]"
measured_parameter = "pIC50"
observed = "< 4.70"


In the following, a different substance is considered.
Value of pIC50 reported for the substance 830142 (antisense kT*kG*kT*dG*d[5mC]*dA*d[5mC]*d[5mC]*dA*dG*dG*dT*dG*kA*kG*k[5mC]) [compound 830142] is < 4.70
